target.under.test: T1, murine vasopressin V2 receptor (mV2R) (murine, UniProt O88721 1-371)
T1 construct: vasopressin V2 receptor, murine; in membrane preparations; source: HEK293, transiently expressing; membrane preparations
assay.comment: radioligand binding; displacement of [3H]-OT or [3H]-VP from membrane preparations of HEK293 cells transiently expressing the murine receptor; dose-response curves in duplicates, at least three independent experiments; Ki >10 µM assigned where <25% of the radioligand was displaced at 10 µM
condition.parameters: one partner purified
pKi: −log10 of the molar value. Positions of bridges follow the written chain, without caps; N, C: chain ends. Non-standard residues stand in square brackets, D forms with d. Groups on a side chain read outwards from the residue. Primed or numbered codes have the meaning given here. No end group written: not given here. εdLys = D-Lys linked through its epsilon amine (k^ε); PEG5′ = PEG5 spacer, as named in the construct; Cy3s = Cy3s fluorophore, as named; Orn = NCCC[C@H](N)C(=O)O; Mpa = O=C(O)CCS

{"columns": ["binder", "censoring.qualifier", "pKi"],
 "data": [
  ["CYIQNCPLG (oxytocin, endogenous nonapeptide ligand of OTR; numbers count on: the mature nonapeptide) [Oxytocin (OT)]", "=", 5.80],
  ["[Mpa]INYQCP[Orn]([dD-PEG5′-εdLys-Cy3s])G (disulfide 1-6 (inferred)) [scrambled cyclic tracer dCINYQCP(Orn)G‐[d‐PEG5‐k^ε‐Cy3s]^8]", "<", 5.00]
]}
